assayed target: human Glucose-dependent Insulinotropic Polypeptide Receptor (hGIPR) (Homo sapiens)
Sequence (P48546 22-466): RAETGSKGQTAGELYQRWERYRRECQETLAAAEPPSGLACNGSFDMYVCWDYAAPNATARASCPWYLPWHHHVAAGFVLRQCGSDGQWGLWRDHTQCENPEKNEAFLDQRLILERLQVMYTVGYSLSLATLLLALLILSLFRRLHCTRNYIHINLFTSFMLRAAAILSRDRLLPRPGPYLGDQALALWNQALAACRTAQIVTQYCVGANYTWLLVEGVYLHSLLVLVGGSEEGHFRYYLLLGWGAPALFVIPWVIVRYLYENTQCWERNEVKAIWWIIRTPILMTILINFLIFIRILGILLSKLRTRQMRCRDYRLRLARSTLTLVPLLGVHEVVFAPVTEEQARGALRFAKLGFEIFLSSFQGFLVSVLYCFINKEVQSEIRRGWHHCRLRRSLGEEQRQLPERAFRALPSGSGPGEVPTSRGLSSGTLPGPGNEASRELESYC
protocol text: Functional in vitro GIPR antagonist potency assay (intracellular cAMP, HTRF) in CHO-K1 cells stably expressing hGIPR
Format: cell-based
setup conditions: 2 h compound incubation, then hGIP at estimated EC80 for 30 min
Protocol: The functional in vitro antagonist potency for test compounds was determined by monitoring intracellular cyclic adenosine monophosphate (cAMP) levels in Chinese hamster ovary (CHO)-K1 cells stably expressing the human Glucose-dependent Insulinotropic Polypeptide Receptor (hGIPR). […] Intracellular cAMP levels are quantitated using a homogenous assay utilizing the Homogeneous Time Resolved Fluorescence (HTRF) technology from Perkin Elmer. […]
reported endpoint: pIC50
Please express pIC50 as -log10 of the molar concentration.

[ask] Provide pIC50 value for the following molecule: CC(C)c1ccc(NC(=O)N2CCC[C@H]2C(=O)Nc2ccc3cc(C(=O)O)ccc3c2)cc1 [Compound 41A]
[reply] 6.80

Attention now turns to another entry.
[ask] Provide pIC50 value for the following molecule: CC(C)c1ccc(NC(=O)N2CCC[C@H]2C(=O)Nc2ccc(-c3ccc(C(=O)O)cc3)cc2)cc1 [Compound 44A]
[reply] 8.17
